Answer each item with its documented log10 CC50.
Tested on: HeLa
Test: Compound was tested for the 50% toxic concentration against Human Rhinovirus-14 (HRV-14) in Hela cells
Type: functional
Settings: read-out: TC50 (the source's name)
For clarity, the numbers are log10 values of CC50 expressed in µM.

Prompt line: Find log10 CC50 (HeLa) for the entry NC(=O)c1ccc2c(c1)C(=O)C(=O)N2CCCc1ccccc1
Response line: 0.85

Prompt line: Another compound to check: NC(=O)c1ccc2c(c1)C(=O)C(=O)N2Cc1ccc2ccccc2c1
Response line: 1.00

Prompt line: Now consider NC(=O)c1ccc2c(c1)C(=O)C(=O)N2Cc1cccc(O)c1 .
Response line: 1.30

Prompt line: // same read-out, input: CN1C(=O)C(=O)c2cc(C(N)=O)ccc21
Response line: 2.43

Prompt line: // query: NC(=O)c1ccc2c(c1)C(=O)C(=O)N2Cc1ccccc1
Response line: 1.70

Prompt line: Let us now turn to COc1cccc(CN2C(=O)C(=O)c3cc(C(N)=O)ccc32)c1
Response line: 1.30

Prompt line: Next entry: NC(=O)c1ccc2c(c1)C(=O)C(=O)N2C/C=C/c1ccccc1
Response line: 0.98

Prompt line: And NC(=O)c1ccc2c(c1)C(=O)C(=O)N2Cc1cc2ccccc2s1 ?
Response line: 0.75
